Hey, just so you know, these numbers are from BindingDB's records for doi:10.1016/j.ejmech.2018.11.076.

Biological target: UniProt P24863
Sequence (P24863 whole entry): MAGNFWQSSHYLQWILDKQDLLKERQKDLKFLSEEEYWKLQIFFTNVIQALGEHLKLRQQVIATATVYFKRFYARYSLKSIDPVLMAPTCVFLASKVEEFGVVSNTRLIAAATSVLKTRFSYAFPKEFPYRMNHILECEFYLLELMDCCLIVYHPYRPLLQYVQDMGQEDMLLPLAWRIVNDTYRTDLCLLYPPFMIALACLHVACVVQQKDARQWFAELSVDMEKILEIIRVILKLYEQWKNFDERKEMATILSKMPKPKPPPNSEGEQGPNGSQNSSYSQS
Assay: Displacement of Kinase tracer 236 from recombinant full-length human N-terminal GST-fused CDK8 (1 to 464 residues)/cyclin C (1 to 283 residues) expressed in baculovirus expression system after 60 mins by TR-FRET assay
pIC50: −log10 of the molar value.
readoutType: pIC50

>>> testresult("Cc1ncccc1Oc1sc(C(N)=O)c2c1-c1c(cnn1C)CC2")
8.80
